Across several studies, molecules have been characterized by their IC50 on human PDE10A2 (Homo sapiens (Human), UniProt Q9Y233); a selection follows.

With human PDE10A2 (Homo sapiens (Human), UniProt Q9Y233) as the test system, provide measured IC50 for this molecule: `Cc1ncc(C)c(-c2cnn(C)c2C(=O)Nc2cc3nc(-c4ccccc4C)nn3cc2F)n1` < 0.005 µM

With human PDE10A2 (Homo sapiens (Human), UniProt Q9Y233) as the test system, provide measured IC50 for this molecule: `CC1(C)C(=O)N([C@H]2C[C@H](Nc3ncc(Br)cn3)C2)c2ncccc21` 0.0193 µM

With human PDE10A2 (Homo sapiens (Human), UniProt Q9Y233) as the test system, provide measured IC50 for this molecule: COc1cc2ncnc(N3CCOC(c4ccc(F)cc4)C3)c2cc1OC (stereo not drawn) 0.2 µM

With human PDE10A2 (Homo sapiens (Human), UniProt Q9Y233) as the test system, provide measured IC50 for this molecule: `CNCc1ccc(-c2cccc3c2C(=O)N(CCc2ccc4ccccc4n2)C3)cc1` 0.2 to 0.5 µM

With human PDE10A2 (Homo sapiens (Human), UniProt Q9Y233) as the test system, provide measured IC50 for this molecule: `O=C1c2c(cccc2NC2CNC2)CN1CCc1ccc2ccccc2n1` 0.2 to 0.5 µM

With human PDE10A2 (Homo sapiens (Human), UniProt Q9Y233) as the test system, provide measured IC50 for this molecule: `COCCCNC(=O)c1cnn(C)c1C(=O)Nc1ccn2cc(-c3ccccc3)nc2n1` 0.0864 µM

With human PDE10A2 (Homo sapiens (Human), UniProt Q9Y233) as the test system, provide measured IC50 for this molecule: `COc1ccc(-c2cncnc2)c2c1CN(CCc1ccc3ccccc3n1)C2=O` < 0.1 µM

With human PDE10A2 (Homo sapiens (Human), UniProt Q9Y233) as the test system, provide measured IC50 for this molecule: `Cn1cc(-c2cccs2)nc1CCc1nc2c(F)cccn2n1` 0.047 µM

With human PDE10A2 (Homo sapiens (Human), UniProt Q9Y233) as the test system, provide measured IC50 for this molecule: `Cn1nccc1-c1cccc2c1C(=O)N(CCc1ccc3ccccc3n1)C2` < 0.1 µM

With human PDE10A2 (Homo sapiens (Human), UniProt Q9Y233) as the test system, provide measured IC50 for this molecule: `Cc1ncc(-c2ccnc3c2C(=O)N(CCc2nc4ccccc4s2)C3)cn1` 0.1 to 0.2 µM

With human PDE10A2 (Homo sapiens (Human), UniProt Q9Y233) as the test system, provide measured IC50 for this molecule: `CCN(c1nc(CCc2nc3c(C)ncc(C)n3n2)n(C)n1)C1CC1` 0.186 µM

With human PDE10A2 (Homo sapiens (Human), UniProt Q9Y233) as the test system, provide measured IC50 for this molecule: `COC(C)(C)CNC(=O)c1c(NC(=O)c2nc(C3CC3)cnc2Nc2cncnc2)cnn1C` 0.0027 µM

With human PDE10A2 (Homo sapiens (Human), UniProt Q9Y233) as the test system, provide measured IC50 for this molecule: `O=C1c2c(ccnc2-c2ccncc2)CN1CCc1ccc2ccccc2n1` < 0.1 µM

With human PDE10A2 (Homo sapiens (Human), UniProt Q9Y233) as the test system, provide measured IC50 for this molecule: `Cc1ccnc(-c2cnn(C)c2C(=O)Nc2ccn3nc(N4CCCC4)nc3c2)c1` < 0.005 µM

With human PDE10A2 (Homo sapiens (Human), UniProt Q9Y233) as the test system, provide measured IC50 for this molecule: `O=C(Nc1cc(-c2ccccn2)nn1CCO)c1nc(C2CC2)ccc1Nc1cncnc1` 0.002 µM

With human PDE10A2 (Homo sapiens (Human), UniProt Q9Y233) as the test system, provide measured IC50 for this molecule: `Cc1sc(-c2cnn(C)c2C(=O)Nc2ccn3nc(N4CCCC4)nc3c2)nc1C(F)F` < 0.005 µM

With human PDE10A2 (Homo sapiens (Human), UniProt Q9Y233) as the test system, provide measured IC50 for this molecule: `Cc1ncc(C)n2nc(CCc3nc(-c4ncco4)nn3C)nc12` 0.12 µM

With human PDE10A2 (Homo sapiens (Human), UniProt Q9Y233) as the test system, provide measured IC50 for this molecule: `Cc1cnc(C)n2nc(CCc3nc(N4CCCC4=O)cn3CC(F)(F)F)nc12` 0.168 µM

With human PDE10A2 (Homo sapiens (Human), UniProt Q9Y233) as the test system, provide measured IC50 for this molecule: `O=C1c2c(cccc2-c2cc[nH]n2)CN1CCc1ccc2ccccc2n1` 0.1 to 0.2 µM

With human PDE10A2 (Homo sapiens (Human), UniProt Q9Y233) as the test system, provide measured IC50 for this molecule: `Cc1nc2ccc(OCc3nc(-c4ccccc4)cn3C)nn2c1C` 0.0072 µM

With human PDE10A2 (Homo sapiens (Human), UniProt Q9Y233) as the test system, provide measured IC50 for this molecule: `CNC(=O)c1ccc(-c2nccnc2C2CN(c3ncc4ccc(F)cc4n3)C2)cc1F` 0.0309 µM

With human PDE10A2 (Homo sapiens (Human), UniProt Q9Y233) as the test system, provide measured IC50 for this molecule: `Cc1ncc(C)n2nc(CSc3nc(-c4ccccc4)n[nH]3)nc12` 0.053 µM

With human PDE10A2 (Homo sapiens (Human), UniProt Q9Y233) as the test system, provide measured IC50 for this molecule: `COc1ccc(C)n2nc(CCc3nc(-c4ccccc4)nn3CCO)nc12` 0.023 µM

With human PDE10A2 (Homo sapiens (Human), UniProt Q9Y233) as the test system, provide measured IC50 for this molecule: `CC(C)(CO)NC(=O)c1ncccc1NC(=O)c1nc(C2CC2)cnc1Nc1cncnc1` 0.0003 µM

With human PDE10A2 (Homo sapiens (Human), UniProt Q9Y233) as the test system, provide measured IC50 for this molecule: `Cc1c(C(N)=O)nc2ccc(OCc3nc(-c4ccccc4)cn3C)nn12` 0.115 µM

With human PDE10A2 (Homo sapiens (Human), UniProt Q9Y233) as the test system, provide measured IC50 for this molecule: `Cn1ncc(C(=O)N2CC(F)C2)c1C(=O)Nc1ccc2nc(N3CCOCC3)nn2c1` 0.0265 µM

With human PDE10A2 (Homo sapiens (Human), UniProt Q9Y233) as the test system, provide measured IC50 for this molecule: `O=C1c2c(-c3cscn3)ccnc2CN1CCc1nc2ccccc2s1` 0.2 to 0.5 µM

With human PDE10A2 (Homo sapiens (Human), UniProt Q9Y233) as the test system, provide measured IC50 for this molecule: CCCC(O)c1ccc(Cl)c(-c2nnc3c(C)nc4ccc(C)nc4n23)c1 (stereo not drawn) 0.534 µM

With human PDE10A2 (Homo sapiens (Human), UniProt Q9Y233) as the test system, provide measured IC50 for this molecule: `Cc1ccc(C)c(C(=O)Nc2ccn3cc(-c4ccccc4)nc3n2)n1` 0.0283 µM

With human PDE10A2 (Homo sapiens (Human), UniProt Q9Y233) as the test system, provide measured IC50 for this molecule: `Cc1c(Cl)ccc2nc(CCc3nc(N4CCCC4)nn3C)nn12` 0.00098 µM

With human PDE10A2 (Homo sapiens (Human), UniProt Q9Y233) as the test system, provide measured IC50 for this molecule: `Cn1nccc1-c1ccnc2c1C(=O)N(CCc1cn3ccccc3n1)C2` 0.1 to 0.2 µM

With human PDE10A2 (Homo sapiens (Human), UniProt Q9Y233) as the test system, provide measured IC50 for this molecule: `O=C(c1nc2ccccc2[nH]1)N1CC(n2c(=O)[nH]c3cccnc32)C1` 0.00326 µM

With human PDE10A2 (Homo sapiens (Human), UniProt Q9Y233) as the test system, provide measured IC50 for this molecule: `Cn1ncc(-c2nc(C(F)F)cs2)c1C(=O)Nc1ccn2nc(N3CC[C@H](F)C3)nc2c1` < 0.005 µM

With human PDE10A2 (Homo sapiens (Human), UniProt Q9Y233) as the test system, provide measured IC50 for this molecule: `Cc1ccc(CCN2Cc3nccc(N4CCOCC4)c3C2=O)nc1` < 0.1 µM

With human PDE10A2 (Homo sapiens (Human), UniProt Q9Y233) as the test system, provide measured IC50 for this molecule: `CC(C)(O)CNC(=O)c1cc(F)ccc1NC(=O)c1nc(C2CC2)cnc1Nc1cncnc1` 0.0014 µM

With human PDE10A2 (Homo sapiens (Human), UniProt Q9Y233) as the test system, provide measured IC50 for this molecule: `O=C(O)C1CCN(c2ccnc3c2C(=O)N(CCc2ccc4ccccc4n2)C3)CC1` 0.1 to 0.2 µM
